# experimentalDetails: Cytotoxicity against human Li23 cells by WST assay
attributeMeasured: CC50 (µM)
Reply numerically in µM, unit not repeated.

Some solved cases for reference:
{"smilesText": "Cc1cc(N(C)C(=O)c2ccccc2)ccc1C(O)(C(F)(F)F)C(F)(F)F", "quantitativeResult": 87}
{"smilesText": "CN(c1ccc(C(O)(C(F)(F)F)C(F)(F)F)cc1)S(=O)(=O)c1cccc(F)c1", "quantitativeResult": 19}
{"smilesText": "Cc1cccc(C(=O)N(C)c2ccc(C(O)(C(F)(F)F)C(F)(F)F)cc2)c1", "quantitativeResult": 20}

Ask: May I ask what CC50 has been recorded for `CN(C(=O)c1cccnc1)c1ccc(C(O)(C(F)(F)F)C(F)(F)F)cc1` ?
Reply: 63

Ask: May I ask what CC50 has been recorded for `Cc1cc(C(O)(C(F)(F)F)C(F)(F)F)ccc1N(C)C(=O)c1ccccc1` ?
Reply: 9

Ask: May I ask what CC50 has been recorded for `CN(C(=O)c1ccsc1)c1ccc(C(O)(C(F)(F)F)C(F)(F)F)cc1` ?
Reply: 44

Ask: May I ask what CC50 has been recorded for `O=C(c1ccccc1)N(Cc1ccccc1)c1ccc(C(O)(C(F)(F)F)C(F)(F)F)cc1` ?
Reply: 7.5

Ask: May I ask what CC50 has been recorded for `CCCN(C(=O)c1ccccc1)c1ccc(C(O)(C(F)(F)F)C(F)(F)F)cc1` ?
Reply: 15

====

Form field: CC50 (one value per entry).
# experimentalDetails: Cytotoxicity against human Li23 cells by WST assay
Reply numerically in µM, unit not repeated.

{"smilesText": "CN(Cc1ccccc1)c1ccc(C(O)(C(F)(F)F)C(F)(F)F)cc1", "unitName": "µM", "CC50": 13}
{"smilesText": "Cc1ccc(C(=O)N(C)c2ccc(C(O)(C(F)(F)F)C(F)(F)F)cc2)cc1", "unitName": "µM", "CC50": 26}
{"smilesText": "O=C(Nc1ccc(C(O)(C(F)(F)F)C(F)(F)F)cc1)c1ccccc1", "unitName": "µM", "CC50": 12}
{"smilesText": "CN(C(=O)Cc1ccccc1)c1ccc(C(O)(C(F)(F)F)C(F)(F)F)cc1", "unitName": "µM", "CC50": 27}

Ask: May I ask what CC50 has been recorded for `CN(C(=O)C12CC3CC(CC(C3)C1)C2)c1ccc(C(O)(C(F)(F)F)C(F)(F)F)cc1` ?
Reply: 17

Ask: May I ask what CC50 has been recorded for `Cc1cccc(S(=O)(=O)N(C)c2ccc(C(O)(C(F)(F)F)C(F)(F)F)cc2)c1` ?
Reply: 11

Ask: May I ask what CC50 has been recorded for `COc1ccc(S(=O)(=O)N(C)c2ccc(C(O)(C(F)(F)F)C(F)(F)F)cc2)cc1` ?
Reply: 7.9

====

# experimentalDetails: Cytotoxicity against human Li23 cells by WST assay
Form field: CC50 (one value per entry).
Reply numerically in µM, unit not repeated.

Some solved cases for reference:
{"smilesText": "Cc1ccccc1C(=O)N(C)c1ccc(C(O)(C(F)(F)F)C(F)(F)F)cc1", "CC50 / µM": 38}
{"smilesText": "CN(c1ccc(C(O)(C(F)(F)F)C(F)(F)F)cc1)S(=O)(=O)c1ccccc1", "CC50 / µM": 16}

Alright, here's another compound for you.
Ask: May I ask what CC50 has been recorded for `CN(C(=O)c1cccs1)c1ccc(C(O)(C(F)(F)F)C(F)(F)F)cc1` ?
Reply: 33
